Target: α6β3 GABAAR (binary) (Mus musculus, UniProt P16305+P63080)
Construct: gene Gabra6; full-length cDNAs, injected 1:1 in Xenopus oocyte nucleus; heteropentamer without third subunit
Sequence (P16305 20-453): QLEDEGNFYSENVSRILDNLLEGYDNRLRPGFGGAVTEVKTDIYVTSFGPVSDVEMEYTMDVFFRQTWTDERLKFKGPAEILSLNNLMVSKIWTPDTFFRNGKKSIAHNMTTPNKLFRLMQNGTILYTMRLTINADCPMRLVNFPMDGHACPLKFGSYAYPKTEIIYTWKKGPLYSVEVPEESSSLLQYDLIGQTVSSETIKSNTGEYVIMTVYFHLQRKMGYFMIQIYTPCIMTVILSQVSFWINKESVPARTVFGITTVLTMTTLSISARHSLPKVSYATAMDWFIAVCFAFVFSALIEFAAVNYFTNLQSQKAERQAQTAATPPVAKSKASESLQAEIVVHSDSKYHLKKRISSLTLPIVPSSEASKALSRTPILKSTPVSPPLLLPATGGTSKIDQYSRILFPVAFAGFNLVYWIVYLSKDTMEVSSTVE
Sequence (P63080 26-473): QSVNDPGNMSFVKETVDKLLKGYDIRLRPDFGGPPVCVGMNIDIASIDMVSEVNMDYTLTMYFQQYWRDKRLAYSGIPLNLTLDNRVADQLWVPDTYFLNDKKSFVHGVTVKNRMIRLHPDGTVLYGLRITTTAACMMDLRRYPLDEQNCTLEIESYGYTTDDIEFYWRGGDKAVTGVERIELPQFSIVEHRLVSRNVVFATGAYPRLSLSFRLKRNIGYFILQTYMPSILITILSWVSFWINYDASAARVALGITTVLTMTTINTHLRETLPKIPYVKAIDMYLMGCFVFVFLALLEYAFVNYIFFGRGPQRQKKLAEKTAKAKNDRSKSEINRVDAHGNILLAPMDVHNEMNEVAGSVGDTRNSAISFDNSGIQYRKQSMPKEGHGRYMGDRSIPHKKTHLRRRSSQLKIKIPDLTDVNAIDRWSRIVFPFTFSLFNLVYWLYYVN
Experiment: two-electrode voltage clamp, Xenopus oocytes
Type: cell-based
Conditions: read-out: IC50 (μM, ± SEM)
READOUT_LABEL: IC50 (µM)
Please give a number only; it is taken to be in µM.

Field request: IC50 | item: N#Cc1nn(-c2c(Cl)cc(C(F)(F)F)cc2Cl)c(N)c1[S+]([O-])C(F)(F)F (stereo not shown)
2.4
